Reference for the values: the OPERA property sets (Mansouri et al. 2018)

Give measured logP for each item. Keep answers brief.

Please fill in: logP reported for `CCc1ccc(-c2nc3ncccc3[nH]2)cc1` = 3.42

Please fill in: logP reported for `COc1ccccc1-c1nc2ccccc2[nH]1` = 3.02

Please fill in: logP reported for `Cc1ccc(-c2nc3ncccc3[nH]2)cc1` = 3.02

Please fill in: logP reported for `Cc1ccc(-c2nc3ccccc3[nH]2)cc1` = 3.67

Please fill in: logP reported for `Clc1ccc(Cc2nc3cc(Cl)ccc3[nH]2)cc1` = 5.18

Please fill in: logP reported for `Clc1ccc2[nH]c(Cc3ccc(Br)cc3)nc2c1` = 5.38

Please fill in: logP reported for `Nc1ccc(Cc2nc3cc(Cl)ccc3[nH]2)cc1` = 3.2

Please fill in: logP reported for `Cc1ccc(Cc2nc3cc(Cl)ccc3[nH]2)cc1` = 5.21

Please fill in: logP reported for `Cc1ccccc1-c1nc2cc([N+](=O)[O-])ccc2[nH]1` = 3.42

Please fill in: logP reported for `Clc1ccc(-c2nc3ncccc3[nH]2)cc1` = 2.95

Please fill in: logP reported for `COc1ccc(Cc2nc3cc([N+](=O)[O-])ccc3[nH]2)cc1` = 3.48

Please fill in: logP reported for `COc1ccc(-c2nc3cc(C)ccc3[nH]2)c(OC)c1` = 3.78

Please fill in: logP reported for `Cc1ccc(-c2nc3cc([N+](=O)[O-])ccc3[nH]2)c(C)c1` = 4.1

Please fill in: logP reported for `CC(C)(C)c1ccc(-c2nc3ncccc3[nH]2)cc1` = 4.82

Please fill in: logP reported for `Fc1ccc(-c2nc3ncccc3[nH]2)cc1` = 2.52
